- Test system: NCI-H2405;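 further: growth inhibition of the human cell line, read out with a cell viability assay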
- assay-remarks: cells
- Type: functional, cell-based, Homo sapiens
- condition-details: Homo sapiens, NCI-H2405
- Description: SANGER: Inhibition of human NCI-H2405 cell growth in a cell viability assay.
IC50 reference

O=C(NOCC1CC1)c1ccc(F)c(F)c1Nc1ccc(I)cc1Cl > 10000 nM
C=CCNC1=C2C[C@@H](C)C[C@H](OC)[C@H](O)[C@@H](C)/C=C(\C)[C@H](OC(N)=O)[C@@H](OC)/C=C\C=C(/C)C(=O)NC(=CC1=O)C2=O 346 nM

Then there is this compound:
Record C[C@]1(O)C[C@@H](c2nc(-c3ccc4ccc(-c5ccccc5)nc4c3)c3c(N)nccn32)C1 : what is its IC50 with NCI-H2405?
> 2560 nM
